target: human DLK (Homo sapiens); experiment: DLK Kd Determinations (KINOMEscan KdELECT, DiscoveRx); parameters: full length of human DLK (amino acids 1-859); host or cells: transiently transfected HEK293 cells; unpurified extract; conditions: fusion protein of full length human DLK (amino acids 1-859) and NFkB DNA binding domain; qPCR readout; duplicate
measurement.type: Kd (nM)

Consider the following illustrative entries.
compound | unit.annotation | obs.value
Nc1ncc(-c2cn(C3CC3)c(CC(F)(F)F)n2)cc1C(F)(F)F | nM | 280
CC(C)c1nc(-c2cnc(N)c(C(F)(F)F)c2)cn1[C@H]1[C@@H]2CC(O)C[C@@H]21 (single isomer, unassigned) [Example 48b] | nM | 59
CC(C)c1nc(-c2cnc(N)c(C(F)(F)F)c2)cn1[C@H]1[C@@H]2CC(N3CCOCC3)C[C@@H]21 (single isomer, unassigned) [Example 127b] | nM | 61
CC(C)c1nc(-c2cnc(N)c(OC(F)(F)F)c2)cn1[C@H]1C[C@H](N2CCOCC2)C1 | nM | 120
Nc1ncc(-c2cn([C@H]3[C@@H]4CNC[C@@H]43)c(C3CC3)n2)cc1OC(F)F | nM | 53

A = Nc1ncc(-c2cn([C@H]3[C@@H]4CN(CC(F)F)C[C@@H]43)c(C3CC3)n2)cc1C(F)(F)F
B = CC(C)c1nc(-c2cnc(N)c(C(F)(F)F)c2)cn1[C@H]1C[C@@H](F)C1
C = CC(C)Cc1nc(-c2cnc(N)c(OC(F)(F)F)c2)cn1[C@H]1[C@@H]2CC(N3CCN(C)CC3)C[C@@H]21 (some centres unmarked)
D = Nc1ncc(-c2cn([C@H]3[C@@H]4CC(N5CCN(CCF)CC5)C[C@@H]43)c(CC3CC3)n2)cc1C(F)(F)F (single isomer, unassigned) [Example 162b]
E = CC(C)Cc1nc(-c2cnc(N)c(OC(F)(F)F)c2)cn1[C@H]1[C@@H]2CC(N3CCN(CCF)CC3)C[C@@H]21 (single isomer, unassigned) [Example 159a]
Task item: List these items ordered by Kd, big to small. Show the ranking through the labels, in the order asked for.
Reply: B, A, E, C, D
(B: 240 nM, A: 56 nM, E: 33 nM, C: 12 nM, D: 5.6 nM)

---

target: human DLK (Homo sapiens, UniProt Q12852); assay: DLK Kd Determinations (KINOMEscan KdELECT, DiscoveRx); settings: fusion protein of full length human DLK (amino acids 1-859) and NFkB DNA binding domain; qPCR readout; duplicate
Sequence (Q12852 whole entry, the tested form may be a part): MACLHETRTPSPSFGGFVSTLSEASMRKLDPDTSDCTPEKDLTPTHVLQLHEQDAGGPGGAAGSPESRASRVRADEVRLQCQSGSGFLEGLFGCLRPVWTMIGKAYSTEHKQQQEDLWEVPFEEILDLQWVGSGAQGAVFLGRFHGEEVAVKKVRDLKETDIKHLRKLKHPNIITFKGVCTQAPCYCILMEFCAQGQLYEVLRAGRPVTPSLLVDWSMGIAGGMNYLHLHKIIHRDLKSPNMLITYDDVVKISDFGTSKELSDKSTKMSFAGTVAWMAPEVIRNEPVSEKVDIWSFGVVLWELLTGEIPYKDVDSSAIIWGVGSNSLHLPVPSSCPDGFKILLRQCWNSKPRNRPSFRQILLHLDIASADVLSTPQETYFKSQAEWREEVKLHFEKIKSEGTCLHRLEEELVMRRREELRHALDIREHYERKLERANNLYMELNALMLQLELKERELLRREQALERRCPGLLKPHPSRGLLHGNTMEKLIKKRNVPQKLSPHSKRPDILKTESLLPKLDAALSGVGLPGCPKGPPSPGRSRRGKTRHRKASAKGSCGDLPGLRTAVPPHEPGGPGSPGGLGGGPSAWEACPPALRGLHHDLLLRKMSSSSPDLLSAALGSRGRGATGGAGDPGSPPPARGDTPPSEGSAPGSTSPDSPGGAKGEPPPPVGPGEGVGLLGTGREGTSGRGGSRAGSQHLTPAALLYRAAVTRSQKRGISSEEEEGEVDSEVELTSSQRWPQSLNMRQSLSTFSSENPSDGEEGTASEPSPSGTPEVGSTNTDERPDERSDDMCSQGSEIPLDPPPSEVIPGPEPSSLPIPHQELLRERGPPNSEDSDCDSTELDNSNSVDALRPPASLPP
pKd: −log10 of the molar value.
measurement.type: pKd

molecule | tested.target | obs.value
Nc1ncc(-c2cn([C@H]3[C@@H]4CN(CC(F)(F)F)C[C@@H]43)c(C3CC3)n2)cc1C(F)(F)F | human DLK (Homo sapiens, UniProt Q12852) | 6.57
Nc1ncc(-c2cn([C@H]3[C@@H]4CNC[C@@H]43)c(CC3CC3)n2)cc1OC(F)F | human DLK (Homo sapiens, UniProt Q12852) | 6.96
CC(C)Cc1nc(-c2cnc(N)c(C(F)(F)F)c2)cn1[C@H]1[C@@H]2CC(N3CCN(C)CC3)C[C@@H]21 (single isomer, unassigned) [Example 146a] | human DLK (Homo sapiens, UniProt Q12852) | 8.19
CC(C)c1nc(-c2cnc(N)c(C(F)(F)F)c2)cn1[C@H]1[C@@H]2CC(N3CCOC[C@@H]3C)C[C@@H]21 (some centres unmarked) [Example 143] | human DLK (Homo sapiens, UniProt Q12852) | 7.72
Nc1ncc(-c2cn(C3CC3)c(CC3CC3)n2)cc1C(F)(F)F | human DLK (Homo sapiens, UniProt Q12852) | 6.92

P = CC(C)c1nc(-c2cnc(N)c(OC(F)(F)F)c2)cn1[C@H]1[C@@H]2CC(N3CCOCC3)C[C@@H]21 (single isomer, unassigned) [Example 19b]
Q = CC(=O)N1C[C@@H]2[C@H](C1)[C@H]2n1cc(-c2cnc(N)c(C(F)(F)F)c2)nc1C1CC1
R = Nc1ncc(-c2cn([C@H]3[C@@H]4CC(N5CCCOCC5)C[C@@H]43)c(C3CC3)n2)cc1OC(F)(F)F (some centres unmarked) [Example 136]
S = CC(C)c1nc(-c2cnc(N)c(C(F)(F)F)c2)cn1C1COC1
Task item: List these items ordered by pKd, big to small. Show the ranking through the labels, in the order asked for.
Reply: R, P, Q, S
(R: 7.70, P: 7.42, Q: 7.16, S: 6.00)

P = Nc1ncc(-c2cn([C@H]3[C@@H]4CN(C5COC5)C[C@@H]43)c(CC3CC3)n2)cc1OC(F)(F)F
Q = CC(C)c1nc(-c2cnc(N)c(OC(F)(F)F)c2)cn1C1CC2(CC(N3CCOCC3)C2)C1 (centres unmarked)
Task item: Looking only at measured pKd, which entry is lower, P or Q ? When you have decided, please share the label of that item.
Reply: P

P = CC(C)c1nc(-c2cnc(N)c(C(F)(F)F)c2)cn1[C@H]1[C@@H]2CC(O)C[C@@H]21 (single isomer, unassigned) [Example 48a]
Q = Nc1ncc(-c2cn([C@H]3[C@@H]4CNC[C@@H]43)c(CC(F)(F)F)n2)cc1C(F)(F)F
Task item: Looking only at measured pKd, which entry is lower, P or Q ? When you have decided, please share the label of that item.
Reply: P
(P: 7.08, Q: 7.40)
